src = paper PMC4336329

hERG current change (%, negative = inhibition) at 10uM values by entry
# measured.on: human ether-à-go-go-related gene (hERG) potassium channel (human, UniProt Q12809)
# Sequence (Q12809 whole entry, looked up): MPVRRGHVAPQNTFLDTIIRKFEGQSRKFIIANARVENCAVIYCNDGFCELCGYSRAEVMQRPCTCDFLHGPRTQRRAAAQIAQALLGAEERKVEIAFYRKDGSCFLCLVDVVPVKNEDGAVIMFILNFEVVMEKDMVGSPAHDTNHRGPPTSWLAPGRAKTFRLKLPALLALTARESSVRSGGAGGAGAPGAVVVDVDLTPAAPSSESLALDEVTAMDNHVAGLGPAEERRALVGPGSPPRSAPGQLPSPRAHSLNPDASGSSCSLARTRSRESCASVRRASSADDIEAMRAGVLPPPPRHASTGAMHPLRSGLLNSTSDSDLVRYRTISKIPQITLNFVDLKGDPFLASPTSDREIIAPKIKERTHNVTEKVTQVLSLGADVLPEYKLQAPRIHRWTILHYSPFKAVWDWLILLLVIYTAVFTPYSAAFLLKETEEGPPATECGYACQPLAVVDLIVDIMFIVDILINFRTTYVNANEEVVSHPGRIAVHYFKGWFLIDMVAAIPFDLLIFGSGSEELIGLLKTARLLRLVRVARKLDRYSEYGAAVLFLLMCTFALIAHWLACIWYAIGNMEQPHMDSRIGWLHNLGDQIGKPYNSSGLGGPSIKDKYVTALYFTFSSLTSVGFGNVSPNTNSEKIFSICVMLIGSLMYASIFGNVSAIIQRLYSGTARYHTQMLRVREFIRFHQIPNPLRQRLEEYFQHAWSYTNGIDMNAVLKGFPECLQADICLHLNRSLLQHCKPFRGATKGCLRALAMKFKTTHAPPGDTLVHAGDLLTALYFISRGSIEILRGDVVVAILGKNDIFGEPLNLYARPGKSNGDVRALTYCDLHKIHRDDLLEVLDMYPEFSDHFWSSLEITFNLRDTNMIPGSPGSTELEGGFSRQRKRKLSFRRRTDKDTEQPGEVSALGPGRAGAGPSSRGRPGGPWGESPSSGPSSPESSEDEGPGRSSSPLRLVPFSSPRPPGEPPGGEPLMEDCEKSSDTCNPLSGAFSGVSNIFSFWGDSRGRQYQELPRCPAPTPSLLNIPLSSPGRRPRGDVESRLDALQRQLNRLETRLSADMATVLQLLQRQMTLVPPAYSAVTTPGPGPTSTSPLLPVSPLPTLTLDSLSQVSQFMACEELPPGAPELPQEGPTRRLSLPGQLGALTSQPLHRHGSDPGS
# procedure.summary: primary screen, population patch clamp on CHO cells stably expressing hERG; higher = less effect of the substance;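 note: peak tail current of the secondary pulse compared with the same well before compound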
The campaign covered roughly 310,000 compounds. About 14,000 (4.5%) showed an effect of 50% or more. Effects have a minus sign here. Many of the other results were omitted from the sample, so strong results are more common in it than they were.
measured.metric: hERG current change (%, negative = inhibition) at 10uM (%)

{"compound": "O=C(NCCc1ccccc1)C1CCN(C(=O)Nc2ccccc2)CC1", "measured.on": "human ether-à-go-go-related gene (hERG) potassium channel (human, UniProt Q12809)", "value.unit": "%", "data.value": 8.37}
{"compound": "Cc1nnc2c(NC(C)C)nc3ccccc3n12", "measured.on": "human ether-à-go-go-related gene (hERG) potassium channel (human, UniProt Q12809)", "value.unit": "%", "data.value": -26.8}
{"compound": "O=C(N/C(=C\\c1ccc(Br)cc1)C(=O)N1CCOCC1)c1ccc([N+](=O)[O-])cc1", "measured.on": "human ether-à-go-go-related gene (hERG) potassium channel (human, UniProt Q12809)", "value.unit": "%", "data.value": -75.5}
{"compound": "Cn1c(=O)n(C)c2cc(N3CCOCC3)c(NC(=O)c3ccc(F)cc3)cc21", "measured.on": "human ether-à-go-go-related gene (hERG) potassium channel (human, UniProt Q12809)", "value.unit": "%", "data.value": -8.15}
{"compound": "COC(=O)c1ccc(S(=O)(=O)NCc2ccco2)o1", "measured.on": "human ether-à-go-go-related gene (hERG) potassium channel (human, UniProt Q12809)", "value.unit": "%", "data.value": 6.1}
{"compound": "CC(O)CNC(=O)c1ccc(-c2nn(C)c(=O)c3ccccc23)cc1 (stereo not drawn)", "measured.on": "human ether-à-go-go-related gene (hERG) potassium channel (human, UniProt Q12809)", "value.unit": "%", "data.value": -0.479}
{"compound": "Cc1c(Cl)ccc2c(C(=O)NC(C)c3ccncc3)cc(-c3ccncc3)nc12 (stereo not drawn)", "measured.on": "human ether-à-go-go-related gene (hERG) potassium channel (human, UniProt Q12809)", "value.unit": "%", "data.value": -59.3}
{"compound": "COC(=O)CNC(=O)c1cc(-c2ccncc2)nc2c(C)c(Cl)ccc12", "measured.on": "human ether-à-go-go-related gene (hERG) potassium channel (human, UniProt Q12809)", "value.unit": "%", "data.value": -27.9}
{"compound": "Cc1c(Cl)ccc2c(C(=O)O)cc(-c3ccccc3)nc12", "measured.on": "human ether-à-go-go-related gene (hERG) potassium channel (human, UniProt Q12809)", "value.unit": "%", "data.value": -1.96}
{"compound": "COc1ccc(CNC(=O)c2ccc(NS(=O)(=O)c3ccc4[nH]c(=O)[nH]c4c3)cc2)cc1OC", "measured.on": "human ether-à-go-go-related gene (hERG) potassium channel (human, UniProt Q12809)", "value.unit": "%", "data.value": 13.3}
{"compound": "CCN(CC(=O)NCc1ccc(F)cc1)Cc1nc2cc(Cl)ccc2c(=O)[nH]1", "measured.on": "human ether-à-go-go-related gene (hERG) potassium channel (human, UniProt Q12809)", "value.unit": "%", "data.value": -72.6}
{"compound": "COc1ccccc1N(C)S(=O)(=O)c1ccc(C(=O)NC(C)c2ccccc2)cc1 (stereo not drawn)", "measured.on": "human ether-à-go-go-related gene (hERG) potassium channel (human, UniProt Q12809)", "value.unit": "%", "data.value": -43.7}
{"compound": "CCN(CC(=O)Nc1ccc2c(c1)OCCO2)Cc1nc2cc(Cl)ccc2c(=O)[nH]1", "measured.on": "human ether-à-go-go-related gene (hERG) potassium channel (human, UniProt Q12809)", "value.unit": "%", "data.value": -29}
{"compound": "CCS(=O)(=O)N1CCN(C2CCC(c3ccccc3)CC2)CC1.O=C(O)C(=O)O (stereo not drawn)", "measured.on": "human ether-à-go-go-related gene (hERG) potassium channel (human, UniProt Q12809)", "value.unit": "%", "data.value": -17.2}
{"compound": "CCN(CC(=O)NCc1ccc(F)cc1)Cc1nc2ccccc2c(=O)[nH]1", "measured.on": "human ether-à-go-go-related gene (hERG) potassium channel (human, UniProt Q12809)", "value.unit": "%", "data.value": -56.5}
{"compound": "Cc1nn(C)c(Oc2cccc(Cl)c2)c1C#N", "measured.on": "human ether-à-go-go-related gene (hERG) potassium channel (human, UniProt Q12809)", "value.unit": "%", "data.value": 8.31}
{"compound": "O=C(CCCCCn1c(=S)[nH]c2ccc(N3CCOCC3)cc2c1=O)NCc1ccccc1Cl", "measured.on": "human ether-à-go-go-related gene (hERG) potassium channel (human, UniProt Q12809)", "value.unit": "%", "data.value": 4.65}
{"compound": "Cc1sc2ncnc(N3CCN(S(=O)(=O)c4ccc(F)cc4)CC3)c2c1C", "measured.on": "human ether-à-go-go-related gene (hERG) potassium channel (human, UniProt Q12809)", "value.unit": "%", "data.value": -50.9}
{"compound": "CCN(CC(=O)NC(=O)NCc1ccccc1)Cc1nc2ccccc2c(=O)[nH]1", "measured.on": "human ether-à-go-go-related gene (hERG) potassium channel (human, UniProt Q12809)", "value.unit": "%", "data.value": -12.9}
{"compound": "CCS(=O)(=O)N1CCN(c2ncnc3sc(C)c(C)c23)CC1", "measured.on": "human ether-à-go-go-related gene (hERG) potassium channel (human, UniProt Q12809)", "value.unit": "%", "data.value": -53.7}
{"compound": "Cc1nnc2c(SC(C)C)nc3ccccc3n12", "measured.on": "human ether-à-go-go-related gene (hERG) potassium channel (human, UniProt Q12809)", "value.unit": "%", "data.value": -77.2}
{"compound": "CCN(CC(=O)Nc1ccccc1SC)Cc1nc2ccccc2c(=O)[nH]1", "measured.on": "human ether-à-go-go-related gene (hERG) potassium channel (human, UniProt Q12809)", "value.unit": "%", "data.value": -23.9}
{"compound": "COc1ccc(N2CCN(C(=O)C3CCCN(c4ncnc5c4nc4n5CCCCC4)C3)CC2)cc1 (stereo not drawn)", "measured.on": "human ether-à-go-go-related gene (hERG) potassium channel (human, UniProt Q12809)", "value.unit": "%", "data.value": -68.7}
{"compound": "NC(=O)c1nnn(-c2nonc2N)c1-c1ccc([N+](=O)[O-])cc1", "measured.on": "human ether-à-go-go-related gene (hERG) potassium channel (human, UniProt Q12809)", "value.unit": "%", "data.value": 24.7}
{"compound": "Ic1ccccc1CN[C@@H]1C2CCN(CC2)[C@@H]1C(c1ccccc1)c1ccccc1.O.O=C(O)C(=O)O", "measured.on": "human ether-à-go-go-related gene (hERG) potassium channel (human, UniProt Q12809)", "value.unit": "%", "data.value": -69.7}
{"compound": "O=C(c1ccccc1)N(Cc1ccc(F)cc1)Cc1nc2ccccc2c(=O)[nH]1", "measured.on": "human ether-à-go-go-related gene (hERG) potassium channel (human, UniProt Q12809)", "value.unit": "%", "data.value": -35}
{"compound": "O=C(N/C(=C/c1ccccc1)C(=O)N1CCOCC1)c1ccc([N+](=O)[O-])cc1", "measured.on": "human ether-à-go-go-related gene (hERG) potassium channel (human, UniProt Q12809)", "value.unit": "%", "data.value": -64.2}
{"compound": "Cc1sc2ncnc(N3CCCCC3)c2c1C", "measured.on": "human ether-à-go-go-related gene (hERG) potassium channel (human, UniProt Q12809)", "value.unit": "%", "data.value": -11.9}
{"compound": "CCNCc1nc2cc(Cl)ccc2c(=O)[nH]1.Cl", "measured.on": "human ether-à-go-go-related gene (hERG) potassium channel (human, UniProt Q12809)", "value.unit": "%", "data.value": 4.64}
{"compound": "CCc1cccc(OC2OC(CO)C(O)C(O)C2NC(C)=O)c1 (stereo not drawn)", "measured.on": "human ether-à-go-go-related gene (hERG) potassium channel (human, UniProt Q12809)", "value.unit": "%", "data.value": 0.684}
{"compound": "Cc1cccc(NC(=O)c2cc(-c3ccc(C)s3)nc3ccccc23)n1", "measured.on": "human ether-à-go-go-related gene (hERG) potassium channel (human, UniProt Q12809)", "value.unit": "%", "data.value": 5.03}
{"compound": "CC1CCN(C(=O)C2CCCN(c3ncnc4c3nc3n4CCCCC3)C2)CC1 (stereo not drawn)", "measured.on": "human ether-à-go-go-related gene (hERG) potassium channel (human, UniProt Q12809)", "value.unit": "%", "data.value": -41.5}
{"compound": "CNC(=O)c1[nH]cnc1C(=O)NCC(=O)OCc1ccccc1", "measured.on": "human ether-à-go-go-related gene (hERG) potassium channel (human, UniProt Q12809)", "value.unit": "%", "data.value": 13.9}
{"compound": "CCN(CC(=O)NCCc1ccc(S(N)(=O)=O)cc1)Cc1nc2ccccc2c(=O)[nH]1", "measured.on": "human ether-à-go-go-related gene (hERG) potassium channel (human, UniProt Q12809)", "value.unit": "%", "data.value": 17.9}
{"compound": "O=c1cc(CN2CCN(c3cccc(C(F)(F)F)c3)CC2)nc2sccn12", "measured.on": "human ether-à-go-go-related gene (hERG) potassium channel (human, UniProt Q12809)", "value.unit": "%", "data.value": -46.3}
{"compound": "Cc1cc(C)c(C)c(S(=O)(=O)N2CCN(c3ncnc4sc(C)c(C)c34)CC2)c1C", "measured.on": "human ether-à-go-go-related gene (hERG) potassium channel (human, UniProt Q12809)", "value.unit": "%", "data.value": 8.21}
{"compound": "O=C(N/C(=C\\c1cccc([N+](=O)[O-])c1)C(=O)N1CCOCC1)c1ccc([N+](=O)[O-])cc1", "measured.on": "human ether-à-go-go-related gene (hERG) potassium channel (human, UniProt Q12809)", "value.unit": "%", "data.value": 12.5}
{"compound": "Cc1sc2ncnc(N3CCN(S(=O)(=O)c4ccccc4)CC3)c2c1C", "measured.on": "human ether-à-go-go-related gene (hERG) potassium channel (human, UniProt Q12809)", "value.unit": "%", "data.value": -18.6}
{"compound": "CC(C)n1c(O)c(N=NC(=O)CNC(=O)Cc2ccc(Cl)cc2)c2ccccc21", "measured.on": "human ether-à-go-go-related gene (hERG) potassium channel (human, UniProt Q12809)", "value.unit": "%", "data.value": -39.1}
